- Assay: isobaric coefficient of expansion
- Condition summary: 298.15 K; 30000 kPa; Liquid; DSC with Pressure Shift
Measured endpoint: isobaric coefficient of expansion

CCCO | 0.000858 1/K
CCO | 0.000929 1/K
CCCCCCCCCO | 0.000732 1/K
CCCCCCCCO | 0.000736 1/K
CCCCCN | 0.001 1/K
CCCCCO | 0.000788 1/K
CCCC(C)O (stereo unspecified) | 0.000851 1/K
CCCCCCO | 0.000764 1/K
CCC(O)CC | 0.00088 1/K
CCCCCCCO | 0.000747 1/K
CCCCCCCCCCO | 0.000725 1/K

* * *

- Assay: isobaric coefficient of expansion
- Condition summary: 338.15 K; 40000 kPa; Liquid; DSC with Pressure Shift
Measured endpoint: isobaric coefficient of expansion

CCCC(C)O (stereo unspecified) | 0.000941 1/K
CCC(O)CC | 0.000976 1/K
CCCCCCCO | 0.000769 1/K
CCCO | 0.000899 1/K
CCO | 0.000958 1/K
CCCCCO | 0.000806 1/K
CCCCCN | 0.000972 1/K
CCCCCCO | 0.000791 1/K
CCCCCCCCCCO | 0.000729 1/K
CCCCCCCCO | 0.000746 1/K
CCCCCCCCCO | 0.000736 1/K

* * *

- Assay: isobaric coefficient of expansion
- Condition summary: 338.15 K; 50000 kPa; Liquid; DSC with Pressure Shift
Measured isobaric coefficient of expansion, listed per entry.
Measured endpoint: isobaric coefficient of expansion

CCCCCCO | 0.000758 1/K
CCCCCO | 0.000773 1/K
CCC(O)CC | 0.000931 1/K
CCCCCCCCO | 0.000717 1/K
CCCCCN | 0.00093 1/K
CCCC(C)O (stereo unspecified) | 0.000899 1/K
CCCCCCCCCCO | 0.000701 1/K
CCO | 0.000911 1/K
CCCCCCCO | 0.000741 1/K
CCCO | 0.000862 1/K
CCCCCCCCCO | 0.000708 1/K

* * *

- Assay: isobaric coefficient of expansion
- Condition summary: 308.15 K; 50000 kPa; Liquid; DSC with Pressure Shift
Measured isobaric coefficient of expansion, listed per entry.
Measured endpoint: isobaric coefficient of expansion

CCCCCCO | 0.000721 1/K
CCCCCCCCCCO | 0.00068 1/K
CCCCCO | 0.000734 1/K

* * *

- Assay: isobaric coefficient of expansion
- Condition summary: 278.15 K; 35000 kPa; Liquid; DSC with Pressure Shift
Measured isobaric coefficient of expansion, listed per entry.
Measured endpoint: isobaric coefficient of expansion

CCCC(C)O (stereo not given) [pentan-2-ol] | 0.000773 1/K
CCCCCCCCO [octan-1-ol] | 0.000717 1/K
CCCCCCCO [heptan-1-ol] | 0.000713 1/K
CCCCCCO [hexan-1-ol] | 0.000733 1/K
CCC(O)CC [3-pentanol] | 0.000802 1/K
CCCCCO [pentan-1-ol] | 0.000752 1/K
CCCCCCCCCO [nonan-1-ol] | 0.000719 1/K
CCCCCN [1-pentanamine] | 0.000969 1/K
CCO [ethanol] | 0.000892 1/K
CCCO [propan-1-ol] | 0.000818 1/K
